System: KBM5-T315I (human chronic myelogenous leukemia)
Assay: MTT cancer cell growth inhibition
Type: cell-based
Conditions: Homo sapiens, 72 h, MTT, 72 hours incubation, KBM5-T315I cells; read-out: GI50 KBM5-T315I
Source text: MTT assay principle is yellow MTT can penetrate membrane into the cell, succinic dehydrogenase of the mitochondria in living cells can make exogenous MTT reduction of insoluble in water of blue-violet acicular formazan for crystallization and deposition in the cell, crystallization can be dissolved dimethyl sulfoxide (DMSO) solution, detected its absorbance at 490 nm/570 nm wavelength by enzyme-linked immunosorbent assay, which can reflect the number of cells. […] e) 570 nm readings. […]
readoutName: GI50 (µM)

Which GI50 reading was recorded for the compound C=C1NC(=O)c2cc(SC)cc(n2)CNC(=O)C[C@@H](/C=C/CCSC(C)=O)OC(=O)[C@H](C(C)C)NC1=O [Compound 205] ?
0.027

(1) C/C=C1\NC(=O)c2cccc(n2)CNC(=O)C[C@@H](/C=C/CCSC(=O)CCCCCCC)OC(=O)[C@H](Cc2cccc3ccccc23)NC1=O [Compound 239]
(2) C/C=C1\NC(=O)c2cccc(n2)CNC(=O)C[C@@H](/C=C/CCSC(=O)CCCCCCC)OC(=O)[C@H](CCSC)NC1=O [Compound 240]
Of the two listed items, 1 and 2 , which carries the larger GI50 figure? Response format: the label of the selected entry.
2

====

Test system: KBM-5 (human chronic myelogenous leukemia)
Experiment: MTT cancer cell growth inhibition
Type: cell-based
Details: Homo sapiens, KBM5, 72 h, MTT, 72 hours incubation, KBM-5 cells; read-out: GI50 KBM-5
readoutName: GI50 (µM)

Sample answers from the record:
# query: GI50 of entry C/C=C1\NC(=O)c2cc(F)cc(n2)CNC(=O)C[C@@H](/C=C/CCS)OC(=O)[C@H](CC)NC1=O [Compound 110]
0.041

Field request: GI50 | item: CC(C)=C1NC(=O)c2nc(ccc2F)CNC(=O)C[C@@H](/C=C/CCS)OC(=O)[C@H](C(C)C)NC1=O [Compound 136]
0.009

For C/C=C1\NC(=O)c2cc(F)cc(n2)CNC(=O)C[C@@H](/C=C/CCSC(C)=O)OC(=O)[C@H](CC)NC1=O [Compound 58] , what is its reported GI50?
0.069

Consider the molecule CC(=O)SCC/C=C/[C@@H]1CC(=O)NCc2cccc(n2)C(=O)NC(=C(C)C)C(=O)N[C@@H](C(C)C)C(=O)O1 [Compound 20] and give its measured GI50.
0.061

Given C=C1NC(=O)c2cc(SC)cc(n2)CNC(=O)C[C@@H](/C=C/CCSC(C)=O)OC(=O)[C@H](C(C)C)NC1=O [Compound 205] , state its recorded GI50.
0.015

(a) C/C=C1\NC(=O)c2cccc(n2)CNC(=O)C[C@@H](/C=C/CCS)OC(=O)[C@H](Cc2ccc(O)cc2)NC1=O [Compound 127]
(b) C/C=C1\NC(=O)c2ccc(SCCC)c(n2)CNC(=O)C[C@@H](/C=C/CCSC(=O)CCCCCCC)OC(=O)[C@H](CC)NC1=O [Compound 176]
Given the two records a and b , choose the one whose GI50 value is lower. Reply with the label of the item you choose.
b

====

Test system: Bel-7402 (human hepatoma cells)
Assay: MTT cancer cell growth inhibition
Format: cell-based
Conditions: Homo sapiens, Bel-7402, 72 h, MTT, 72 hours incubation, Bel-7402 cells; read-out: GI50 Bel-7402
readoutName: GI50 (nM)

Check out these entries, answers already filled in.
Consider the compound shown here: `C/C=C1\NC(=O)c2cccc(n2)CNC(=O)C[C@@H](/C=C/CCSC(=O)CCCCCCC)OC(=O)[C@H](C(C)(C)C)NC1=O` What is its recorded GI50?
42

Consider the compound `C/C=C1\NC(=O)c2ccc(SC)c(n2)CNC(=O)C[C@@H](/C=C/CCS)OC(=O)[C@H](C)NC1=O` and give its measured GI50.
82

Can you share its GI50? I mean this compound: `C/C=C1\NC(=O)c2cc(SC)cc(n2)CNC(=O)C[C@@H](/C=C/CCSC(C)=O)OC(=O)[C@H](C)NC1=O`
56

Given the entry `C/C=C1\NC(=O)c2ccc(F)c(n2)CNC(=O)C[C@@H](/C=C/CCS)OC(=O)[C@H](CCCCN)NC1=O` , report its measured GI50.
27

(1) CC(=O)SCC/C=C/[C@@H]1CC(=O)NCc2cc(F)cc(n2)C(=O)NC(=C(C)C)C(=O)N[C@@H](C(C)C)C(=O)O1
(2) C/C=C1\NC(=O)c2cc(SCC)cc(n2)CNC(=O)C[C@@H](/C=C/CCSC(=O)CCCCC)OC(=O)[C@H](C(C)C)NC1=O
I'm curious whether 1 or 2 has the smaller GI50 number. Which is it? Indicate which entry you chose by stating its label.
2
(2: 31 nM, 1: 67 nM)

====

Test system: MCF-7 (human breast cancer cells)
Test: MTT cancer cell growth inhibition
Assay type: cell-based
Conditions: Homo sapiens, MCF7, 72 h, MCF-7 cells, 72 hours incubation, read-out: GI50 MCF
readoutName: GI50 (nM)

// GI50 lookup, key: `CSc1cc2nc(c1)C(=O)NC(=C(C)C)C(=O)N[C@@H](C(C)C)C(=O)O[C@H](/C=C/CCSC(C)=O)CC(=O)NC2`
30

Please look up its GI50: `C/C=C1\NC(=O)c2nc(ccc2SC)CNC(=O)C[C@@H](/C=C/CCSC(C)=O)OC(=O)[C@H](CCCCNC(=O)OCC2c3ccccc3-c3ccccc32)NC1=O`
30

What does the record list as GI50 for `C=C1NC(=O)c2nc(ccc2SC)CNC(=O)C[C@@H](/C=C/CCSC(C)=O)OC(=O)[C@H](C)NC1=O` ?
30

====

Test system: Hela (human cervical cancer cells)
Assay: MTT cancer cell growth inhibition
Type: cell-based
Details: Homo sapiens, HeLa, 72 h, MTT, 72 hours incubation; read-out: GI50 Hela
readoutName: GI50 (µM)

Request body: readout GI50, system Hela (human cervical cancer cells), query C/C=C1\NC(=O)c2ccc(F)c(n2)CNC(=O)C[C@@H](/C=C/CCSC(=O)CCCCCCC)OC(=O)[C@H](Cc2ccccc2)NC1=O [Example 71] . Return the value.
0.07

Tell me reported GI50 for C/C=C1\NC(=O)c2ccc(F)c(n2)CNC(=O)C[C@@H](/C=C/CCSC(C)=O)OC(=O)[C@H](CCCCNC(=O)OCC2c3ccccc3-c3ccccc32)NC1=O [Example 77] , tested with Hela (human cervical cancer cells).
0.05

What reported GI50 corresponds to C/C=C1\NC(=O)c2ccc(C)c(n2)CNC(=O)C[C@@H](/C=C/CCSC(C)=O)OC(=O)[C@H](Cc2ccccc2)NC1=O [Example 68] on Hela (human cervical cancer cells)?
0.05

(A) C/C=C1\NC(=O)c2ccc(F)c(n2)CCNC(=O)C[C@@H](/C=C/CCSC(C)=O)OC(=O)[C@H](C(C)C)NC1=O [Compound 105]
(B) C/C=C1\NC(=O)c2cc(F)cc(n2)CCNC(=O)C[C@@H](/C=C/CCSC(C)=O)OC(=O)[C@H](C(C)C)NC1=O [Compound 104]
# query: argmin of GI50 over A and B Answer by stating the label of the chosen item.
B
(B: 0.03 µM, A: 0.05 µM)

====

Tested on: U937 (human leukemia cells)
Assay: MTT cancer cell growth inhibition
Assay type: cell-based
Conditions: Homo sapiens, U-937, 72 h, MTT, 72 hours incubation; read-out: GI50 U93
readoutName: GI50 (µM)

Form field: reported GI50 of C/C=C1\NC(=O)c2nc(ccc2F)CNC(=O)C[C@@H](/C=C/CCSC(C)=O)OC(=O)[C@@H](C)NC1=O [Compound 100]
0.06

(1) C/C=C1\NC(=O)c2cccc(n2)CCNC(=O)C[C@@H](/C=C/CCS)OC(=O)[C@H](C(C)C)NC1=O [Compound 146]
(2) C=C1NC(=O)c2cccc(n2)CNC(=O)C[C@@H](/C=C/CCS)OC(=O)[C@H](C(C)C)NC1=O [Compound 131]
Of the two listed items, which has the higher GI50? First: 1 Second: 2 Reply briefly: the label of your chosen item.
2
(2: 0.05 µM, 1: 0.03 µM)

====

Test system: SGC-7901 (human gastric cancer cells)
Experiment: MTT cancer cell growth inhibition
Format: cell-based
Conditions: Homo sapiens, SGC-7901, 72 h, MTT, 72 hours incubation, SGC-7901 cells; read-out: GI50 SGC-7901
readoutName: GI50 (nM)

Which GI50 reading was recorded for the molecule C/C=C1\NC(=O)c2cccc(n2)CNC(=O)C[C@@H](/C=C/CCSC(=O)CCCCCCC)OC(=O)[C@@H](C)NC1=O [Compound 236] ?
48

(A) C=C1NC(=O)c2nc(ccc2SC)CNC(=O)C[C@@H](/C=C/CCSC(C)=O)OC(=O)[C@H](C)NC1=O [Compound 210]
(B) C/C=C1\NC(=O)c2nc(ccc2SCC)CNC(=O)C[C@@H](/C=C/CCSC(=O)CCCCCCC)OC(=O)[C@H](C(C)C)NC1=O [Compound 247]
When their GI50 values are compared, which is larger, A or B ? Please respond with the label that marks your chosen entry.
A
